Target: corticotropin releasing factor 1 receptor
Test: cell-based or functional assay
Ends that are not written are not given here.
quantity measured: CRF1R EC50 (µM)

                                      binder  value_measured
 0  DNPSLSIDLPLLLLRTLLELEKTQSQRERAEQNAIIFASV-NH2 [SEQ ID NO 346]               1
 1  ZGPPISIDLPQILLRKVIEIEKQEKEKQQAANNALLLATI (C-terminal amide) [SEQ ID NO 299]               1
 2  ZGPPISIDLPFFLLRKMIEIEKQEKEKQQAANNRLLLDTI (C-terminal amide) [SEQ ID NO 223]          0.0481
 3  DNPSLSIDLPQYLLRTLLELARTQSQRERAEQNAIIFASV-NH2 [SEQ ID NO 339]               1
 4  ZGPPISIDLPHALLRKMIEIEKQEKEKQQAANNRLLLDTI (not fully specified; C-terminal amide) [SEQ ID NO 304]           0.116
 5  ZGPPISIDLPFFLLRKVIEIEKQEKEKQQAANNALLLATI (C-terminal amide) [SEQ ID NO 317]           0.188
 6  ZGPPISIDLPLYLLRKMIEIEKQEKEKQQATTNARLLDRV (C-terminal amide) [SEQ ID NO 243]           0.441
 7  ZGPPISIDLPYHLLRKMIEIEKQEKEKQQAANNALLLDTI (C-terminal amide) [SEQ ID NO 314]           0.979
 8  ZGPPISIDLPQYLLRKMIEIEKQEKEKQQAANNALLLATI (C-terminal amide) [SEQ ID NO 227]           0.918
 9  ZGPPISIDLPFHLLRKMIEIEKQEKEKQQAANNALLLDTI (C-terminal amide) [SEQ ID NO 228]           0.276
10  IVLSLDVPIGLLQILLEQARHAHAHAHAHAQAHILAHV-NH2 [SEQ ID NO 369]               1
11  ZGPPISIDLPYHLLRKVIEIEKQEKEKQQAANNALLLATI (C-terminal amide) [SEQ ID NO 313]           0.704
12  ZGPPISIDLPTYLLRILIEIEKQEKEKQQAANNRLLLDTI (C-terminal amide) [SEQ ID NO 252]           0.227
13  IVLSLDVPIGLLQILLEQARHAAAHAAAHAQAHILAHV-NH2 [SEQ ID NO 367]               1
14  ZGPPISIDLPIILLRKVIEIEKQEKEKQQAANNRLLLDTI (C-terminal amide) [SEQ ID NO 297]               1
15  DNPSLSIDVPFFLLRTLLELEKTQSQRERAEQNARIFARV-NH2 [SEQ ID NO 386]               1
16  ZGPPISIDVPFQLLRKVIEIEKQEKEKQQAANNARLLARI (C-terminal amide) [SEQ ID NO 383]               1
17  ZGPPISIDLPFQLLRVLIEIEKQEKEKQQAANNALLLATI (C-terminal amide) [SEQ ID NO 361]           0.149
18  ZGPPISIDLPQILLRKVIEIEKQEKEKQQAANNRLLLDTI (C-terminal amide) [SEQ ID NO 293]            0.52
19  ZGPPISIDLPLYLLRKMIEIEKQEKEKQQAANNALLLATI (C-terminal amide) [SEQ ID NO 245]           0.381
20  ZGPPISIDLPLALLRKMIEIEKQEKEKQQAANNRLLLDTI (not fully specified; C-terminal amide) [SEQ ID NO 308]          0.0635
21  NDDPPISIDLPLYLLRNMIEMARIENEREQAGLNAKYLAEV-NH2 [SEQ ID NO 271]           0.815
22  ZGPPISIDLPIILLRKMIEIEKQEKEKQQAANNARLLARI (C-terminal amide) [SEQ ID NO 290]               1
23  ZGPPISIDLPVALLRKMIEIEKQEKEKQQAANNRLLLDTI (not fully specified; C-terminal amide) [SEQ ID NO 305]               1

Values were extracted from patent US20030148956A1.
